Origin of the recorded values: patent US12077503B2

Tested on: pigweed (Amaranthus retroflexus)
protocol: Test A preemergence
Type: in vivo
measurementConditions: Amaranthus retroflexus, pre-emergence, 240 h, 125 g ai/ha, preemergence; visual injury rating, 0 to 100 scale where 0 is no effect and 100 is complete control; approximately 10 d; read-out: Pigweed plant response rating
propertyLabel: pest or weed control at 125 g/ha (%)

>>> df
                      structuresmilesstring                     propertylabel  experimentalvalue
0  Cc1cccc([C@H]2CN(C)C(=O)[C@@H]2C(=O)Nc2ccc(F)c(F)c2F)c1  pest or weed control at 125 g/ha                 40
1  Cc1ccc([C@H]2CN(C)C(=O)[C@@H]2C(=O)Nc2cccc(C#N)c2F)cc1  pest or weed control at 125 g/ha                 80
2  Cc1nc([C@H]2CN(C)C(=O)[C@@H]2C(=O)Nc2ccccc2F)cs1  pest or weed control at 125 g/ha                  0
3  Cc1cc([C@H]2CN(C)C(=O)[C@@H]2C(=O)Nc2ccccc2F)no1  pest or weed control at 125 g/ha                  0
4  O=C1NC[C@H](c2ccc(F)c(Oc3ccccc3)c2)[C@H]1C(=O)Nc1cccc(F)c1F  pest or weed control at 125 g/ha                  0
5  COc1cc(C(F)(F)F)ccc1[C@H]1CNC(=O)[C@@H]1C(=O)Nc1cccc(F)c1F  pest or weed control at 125 g/ha                  0

---

System: giant foxtail (Setaria faberi)
protocol: Test G Pre-Emergence Protocol
Format: in vivo
measurementConditions: Setaria faberi, pre-emergence, 312 h, 250 g ai/ha, evaluated after 13 days, read-out: Foxtail, Giant damage rating (100=total damage to plant; 0=no damage to plant)
Decide by pest or weed control at 250 g/ha: equal to or exceeding 30% means criterion met, less means criterion not met.

>>> print(df.to_string())
                                   molecule              group
0  COc1cccc(NC(=O)[C@H]2C(=O)N(C)C[C@@H]2c2ccc(C(F)(F)F)cc2)c1C (racemic) [Compound 1446]      criterion met
1  CN1C[C@H](c2cc(C(C)(C)C)ncn2)[C@@H](C(=O)Nc2ccc(F)c(F)c2F)C1=O (racemic) [Compound 1668]  criterion not met
2  CN1C[C@@H](c2ccc(C(F)(F)F)cc2)[C@H](C(=O)Nc2ccc(F)nc2)C1=O (racemic) [Compound 1555]      criterion met
3  CN1C[C@H](c2cccc(C(C)(C)C#N)c2)[C@@H](C(=O)Nc2cccc(F)c2F)C1=O (racemic) [Compound 1497]      criterion met

---

Tested on: corn (Zea mays)
protocol: Test A postemergence
Type: in vivo
measurementConditions: Zea mays, post-emergence, 240 h, Postemergence, 500 g ai/ha; visual injury, 0 to 100 scale (0 no effect, 100 complete control), approx. 10 d
Attribute: Corn plant response rating (crop injury, 0 = no effect, 100 = complete kill) at 500 g/ha
propertyLabel: Corn plant response rating (crop injury, 0 = no effect, 100 = complete kill) at 500 g/ha (%)

                      structuresmilesstring      studytarget  experimentalvalue
0  CN1C[C@H](c2cccc(C(F)(F)F)c2)[C@@H](C(=O)Nc2ccc(F)cc2C(F)(F)F)C1=O  corn (Zea mays)                 70
1  N#Cc1cc([C@H]2CNC(=O)[C@]2(O)C(=O)Nc2cccc(F)c2F)ccc1F  corn (Zea mays)                  0
2  COc1cc([C@H]2CN(C)C(=O)[C@@H]2C(=O)Nc2ccccc2S(C)(=O)=O)ccc1F  corn (Zea mays)                  0
3  CSc1ccccc1NC(=O)[C@H]1C(=O)N(C)C[C@@H]1c1ccc(F)c(C)c1  corn (Zea mays)                 90
